What MPR was measured for each of the following?
Target: Adenosine A2 receptor (UniProt P29275+P29274)
Details: Canis lupus familiaris
Description: Molar potency ratio (MPR) against adenosine A2 receptor of canine coronary artery
# respond with the number and nothing more

Item COc1cccc(CCNc2ncnc3c2ncn3C2O[C@H](CO)[C@@H](O)[C@H]2O)c1 (stereo not given in full) with Adenosine A2 receptor (UniProt P29275+P29274) - MPR?
1.3

Next entry: "OC[C@H]1O[C@@H](n2cnc3c(NCc4cccc(Cl)c4)ncnc32)[C@H](O)[C@@H]1O"
0.34

Next entry: OC[C@H]1OC(n2cnc3c(Nc4ccccc4F)ncnc32)[C@H](O)[C@@H]1O (stereo not given in full)
0.91

Next entry: OC[C@H]1OC(n2cnc3c(NCCc4ccc(F)cc4)ncnc32)[C@H](O)[C@@H]1O (stereo not given in full)
2.1

Next entry: "OC[C@H]1O[C@@H](n2cnc3c(NCC(c4ccccc4)c4ccccc4)ncnc32)[C@H](O)[C@@H]1O"
0.71

###

What MPR was measured for each of the following?
Target: Adenosine A2 receptor (UniProt P29275+P29274)
Conditions: Canis lupus familiaris
# respond with the number and nothing more

Item OC[C@H]1OC(n2cnc3c(NC/C=C/c4ccccc4)ncnc32)[C@H](O)[C@@H]1O (stereo partly drawn) with Adenosine A2 receptor (UniProt P29275+P29274) - MPR?
0.32

Next entry: COc1cccc(Nc2ncnc3c2ncn3C2O[C@H](CO)[C@@H](O)[C@H]2O)c1 (stereo partly drawn)
0.26

Next entry: OC[C@H]1OC(n2cnc3c(NCCc4ccc5c(c4)OCO5)ncnc32)[C@H](O)[C@@H]1O (stereo partly drawn)
0.42

Next entry: OC[C@H]1O[C@@H](n2cnc3c(NCC4CCc5ccccc54)ncnc32)[C@H](O)[C@@H]1O (stereo partly drawn)
0.24

Next entry: OC[C@H]1OC(n2cnc3c(NCc4c(Cl)cccc4Cl)ncnc32)[C@H](O)[C@@H]1O (stereo partly drawn)
0.024

Next entry: OC[C@H]1OC(n2cnc3c(NCCc4nc5ccccc5[nH]4)ncnc32)[C@H](O)[C@@H]1O (stereo partly drawn)
0.4

Next entry: OC[C@H]1OC(n2cnc3c(NCCc4cccc(F)c4)ncnc32)[C@H](O)[C@@H]1O (stereo partly drawn)
1.6

Next entry: "OC[C@H]1O[C@@H](n2cnc3c(NCCc4ccccc4)ncnc32)[C@H](O)[C@@H]1O"
2

Next entry: Cc1ccc(Nc2ncnc3c2ncn3C2O[C@H](CO)[C@@H](O)[C@H]2O)cc1 (stereo partly drawn)
1.3

Next entry: "Cc1cccc(CNc2ncnc3c2ncn3[C@@H]2O[C@H](CO)[C@@H](O)[C@H]2O)c1"
0.85

Next entry: COc1ccccc1Nc1ncnc2c1ncn2C1O[C@H](CO)[C@@H](O)[C@H]1O (stereo partly drawn)
0.28

Next entry: "Cc1ccc(CNc2ncnc3c2ncn3[C@@H]2O[C@H](CO)[C@@H](O)[C@H]2O)cc1"
0.04

Next entry: OC[C@H]1OC(n2cnc3c(NCCc4cccc(C(F)(F)F)c4)ncnc32)[C@H](O)[C@@H]1O (stereo partly drawn)
0.82

Next entry: OC[C@H]1OC(n2cnc3c(NCCc4c[nH]c5ccccc45)ncnc32)[C@H](O)[C@@H]1O (stereo partly drawn)
0.43

Next entry: OC[C@H]1OC(n2cnc3c(NC4CCCC[C@@H]4c4ccccc4)ncnc32)[C@H](O)[C@@H]1O (stereo partly drawn)
0.19

Next entry: "OC[C@H]1O[C@@H](n2cnc3c(NCc4ccc(F)cc4)ncnc32)[C@H](O)[C@@H]1O"
0.36

Next entry: COc1cc(CCCNc2ncnc3c2ncn3C2O[C@H](CO)[C@@H](O)[C@H]2O)cc(OC)c1OC (stereo partly drawn)
0.056

Next entry: "OC[C@H]1O[C@@H](n2cnc3c(NCc4ccccc4Cl)ncnc32)[C@H](O)[C@@H]1O"
1.2

###

Target: Adenosine A2 receptor (UniProt P29275+P29274)
Experiment: Acidic dissociation constant(pKa) against A2 adenosine receptor of coronary artery
Format: protein assay
Conditions: Canis lupus familiaris
Label true (1) when pka is at or above 3; anything below gets false (0).

Please check the record Cc1ccccc1CCNc1ncnc2c1ncn2C1O[C@H](CO)[C@@H](O)[C@H]1O (some centres undefined) and state if its pka is at or above 3.
true (1)

Next entry: COc1cc(Nc2ncnc3c2ncn3C2O[C@H](CO)[C@@H](O)[C@H]2O)cc(OC)c1OC (some centres undefined)
false (0)

Next entry: "OC[C@H]1O[C@@H](n2cnc3c(NCc4ccc(F)cc4)ncnc32)[C@H](O)[C@@H]1O"
true (1)

Next entry: OC[C@H]1OC(n2cnc3c(NCCc4ccc(Cl)cc4)ncnc32)[C@H](O)[C@@H]1O (some centres undefined)
true (1)

Next entry: OC[C@H]1OC(n2cnc3c(NCCc4ccccn4)ncnc32)[C@H](O)[C@@H]1O (some centres undefined)
false (0)

Next entry: "COc1ccccc1CNc1ncnc2c1ncn2[C@@H]1O[C@H](CO)[C@@H](O)[C@H]1O"
true (1)

Next entry: "Cc1ccc(CNc2ncnc3c2ncn3[C@@H]2O[C@H](CO)[C@@H](O)[C@H]2O)cc1"
true (1)

Next entry: OC[C@H]1OC(n2cnc3c(Nc4ccc(Cl)cc4)ncnc32)[C@H](O)[C@@H]1O (some centres undefined)
false (0)

Next entry: OC[C@H]1OC(n2cnc3c(Nc4cccc(Cl)c4)ncnc32)[C@H](O)[C@@H]1O (some centres undefined)
false (0)

Next entry: Cc1ccc(CCNc2ncnc3c2ncn3C2O[C@H](CO)[C@@H](O)[C@H]2O)cc1 (some centres undefined)
true (1)

Next entry: OC[C@H]1OC(n2cnc3c(NCCc4ccncc4)ncnc32)[C@H](O)[C@@H]1O (some centres undefined)
false (0)

Next entry: "Cc1ccccc1CNc1ncnc2c1ncn2[C@@H]1O[C@H](CO)[C@@H](O)[C@H]1O"
true (1)

Next entry: COc1ccc(CCNc2ncnc3c2ncn3C2O[C@H](CO)[C@@H](O)[C@H]2O)cc1 (some centres undefined)
true (1)

Next entry: "OC[C@H]1O[C@@H](n2cnc3c(NCCc4ccccc4)ncnc32)[C@H](O)[C@@H]1O"
true (1)

Next entry: OC[C@H]1OC(n2cnc3c(NCCc4ccc(F)cc4)ncnc32)[C@H](O)[C@@H]1O (some centres undefined)
true (1)

###

Test: Estimated ionization constant(pKa)
Format: physicochemical
experimentalEndpoint: pKa

# get_value(readout='pKa', item= COc1ccccc1CCNc1ncnc2c1ncn2C1O[C@H](CO)[C@@H](O)[C@H]1O (stereo partly specified) )
3.56

###

What MPR was measured for each of the following?
Molecular target: Adenosine A2 receptor (UniProt P29275+P29274)
Conditions: Canis lupus familiaris
# respond with the number and nothing more

# get_value(readout='MPR', item= Cc1ccc(Nc2ncnc3c2ncn3C2O[C@H](CO)[C@@H](O)[C@H]2O)cc1C (stereo not given in full) )
0.043

Next entry: Cc1cccc(Nc2ncnc3c2ncn3C2O[C@H](CO)[C@@H](O)[C@H]2O)c1 (stereo not given in full)
0.023

Next entry: OC[C@H]1OC(n2cnc3c(NCc4ccccn4)ncnc32)[C@H](O)[C@@H]1O (stereo not given in full)
0.62

Next entry: OC[C@H]1OC(n2cnc3c(NCCc4ccc(Cl)cc4)ncnc32)[C@H](O)[C@@H]1O (stereo not given in full)
0.41

Next entry: COc1ccc(Nc2ncnc3c2ncn3C2O[C@H](CO)[C@@H](O)[C@H]2O)cc1OC (stereo not given in full)
0.04

###

Assay: Index of hydrophobicity (k')
Format: ADME
experimentalEndpoint: k'
# respond with the number and nothing more

# get_value(readout='k'', item= OC[C@H]1OC(n2cnc3c(NCc4ccc(Cl)cc4Cl)ncnc32)[C@H](O)[C@@H]1O (stereo partly drawn) )
8.86

Next entry: OC[C@H]1OC(n2cnc3c(NCc4ccccc4F)ncnc32)[C@H](O)[C@@H]1O (stereo partly drawn)
1.57

Next entry: OC[C@H]1OC(n2cnc3c(NCCc4cccc(Cl)c4)ncnc32)[C@H](O)[C@@H]1O (stereo partly drawn)
4.14

Next entry: "OC[C@H]1O[C@@H](n2cnc3c(NCc4ccc(F)cc4)ncnc32)[C@H](O)[C@@H]1O"
1.57

Next entry: C[C@H](Cc1ccccc1)Nc1ncnc2c1ncn2[C@@H]1O[C@H](CO)[C@@H](O)[C@H]1O (stereo in doubt; 1a) [(R)-PIA]
2.61

Next entry: OC[C@H]1O[C@@H](n2cnc3c(NCC4CCc5ccccc54)ncnc32)[C@H](O)[C@@H]1O (stereo partly drawn)
3.81

Next entry: OC[C@H]1OC(n2cnc3c(NCc4cccs4)ncnc32)[C@H](O)[C@@H]1O (stereo partly drawn)
1.04

Next entry: OC[C@H]1OC(n2cnc3c(NC/C=C/c4ccccc4)ncnc32)[C@H](O)[C@@H]1O (stereo partly drawn)
2.36

Next entry: "OC[C@H]1O[C@@H](n2cnc3c(NCCCCc4ccccc4)ncnc32)[C@H](O)[C@@H]1O"
6.93

Next entry: OC[C@H]1OC(n2cnc3c(NCCc4cccc(C(F)(F)F)c4)ncnc32)[C@H](O)[C@@H]1O (stereo partly drawn)
6.68

Next entry: OC[C@H]1OC(n2cnc3c(NCCc4ccccn4)ncnc32)[C@H](O)[C@@H]1O (stereo partly drawn)
0.39

Next entry: "OC[C@H]1O[C@@H](n2cnc3c(NC4Cc5ccccc5C4)ncnc32)[C@H](O)[C@@H]1O"
2.75

Next entry: OC[C@H]1OC(n2cnc3c(NCc4ccccn4)ncnc32)[C@H](O)[C@@H]1O (stereo partly drawn)
0.32

Next entry: OC[C@H]1OC(n2cnc3c(NCCc4ccsc4)ncnc32)[C@H](O)[C@@H]1O (stereo partly drawn)
1.32

Next entry: OC[C@H]1OC(n2cnc3c(NCCc4c[nH]cn4)ncnc32)[C@H](O)[C@@H]1O (stereo partly drawn)
0.14

Next entry: OC[C@H]1OC(n2cnc3c(NC4CCCC[C@H]4c4ccccc4)ncnc32)[C@H](O)[C@@H]1O (stereo partly drawn)
1.96

Next entry: "OC[C@H]1O[C@@H](n2cnc3c(NCc4ccccc4Cl)ncnc32)[C@H](O)[C@@H]1O"
3.12

Next entry: Cc1ccc(Nc2ncnc3c2ncn3C2O[C@H](CO)[C@@H](O)[C@H]2O)c(C)c1 (stereo partly drawn)
3.15
